B1: Caulobacter ParB omega fusion; a variant is named by its letters at X, in order, B8GW30 (parent)
chain: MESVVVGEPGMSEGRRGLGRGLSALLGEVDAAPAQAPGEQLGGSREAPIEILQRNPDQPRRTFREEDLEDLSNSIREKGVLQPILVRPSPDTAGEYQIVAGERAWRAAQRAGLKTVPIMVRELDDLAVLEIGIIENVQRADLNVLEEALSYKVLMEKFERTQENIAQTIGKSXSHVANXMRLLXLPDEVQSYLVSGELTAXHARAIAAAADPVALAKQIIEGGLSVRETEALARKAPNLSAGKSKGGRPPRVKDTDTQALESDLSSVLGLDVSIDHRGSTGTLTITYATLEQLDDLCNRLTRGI

Variants of: B1
TEST: one-hybrid fitness for binding parS DNA (scaled: cognate 1, non-cognate 0); higher = stronger binding
COND: with parS DNA site
The full ranking holds about 81,000 sequences; the median of “one-hybrid fitness for binding parS DNA” is about -0.17, and the highest 2% start at about 0.51. The sample as a whole holds a higher share of the highest values than the screen did.
Kindly state one-hybrid fitness for binding parS DNA for each of the entries shown.
Numbers only.

Consider the worked cases shown below.
Per the record, RMCY has one-hybrid fitness for binding parS DNA of 0.509

Reported one-hybrid fitness for binding parS DNA for RVAG was 0.999

Record RSCY . Reported one-hybrid fitness for binding parS DNA: 0.47

Next:
For RVAM the variant record lists one-hybrid fitness for binding parS DNA as 0.329
